assay: Compound solubility in water; assay type: physicochemical
Param threshold (10 µg/mL) applies to solubility; output 1.0 when value >= threshold, 0.0 when value < threshold.

Solved entries (count: 6):
>>> label("COc1c(F)cccc1-c1cc(C)n2ncc(C(=O)N[C@@H](C)C3CC3)c2n1")
0.0
>>> label("Cc1cc(-c2ccnnc2)nc2c(C(=O)NC(C3CC3)C(F)(F)F)cnn12 (stereo not drawn)")
1.0
>>> label("Cc1cc(-c2cccc3ncn(C)c23)nc2c(C(=O)NC(C3CC3)C(F)(F)F)cnn12 (stereo not drawn)")
1.0
>>> label("Cc1cc(-c2cccc3c2OCO3)nc2c(C(=O)NC(C3CC3)C(F)(F)F)cnn12 (stereo not drawn)")
0.0
>>> label("Cc1cc(C)n2ncc(C(=O)NC(c3ccc(F)cc3)C(F)(F)F)c2n1 (stereo not drawn)")
0.0
>>> label("CCC(NC(=O)c1cnn2c(C)cc(-c3cccnc3)nc12)C(F)(F)F (stereo not drawn)")
1.0

hey, is solubility for this one >= 10 µg/mL? Cc1cc(Cl)nc2c(C(=O)NC(C)(C)C3CC3)cnn12
1.0

// inclusive: solubility at least 10 µg/mL? input: Cc1cc(N2CCCN(C(C)C)C2=O)nc2c(C(=O)NC(C)(C)C)cnn12
1.0

Is the recorded value of solubility equal to or greater than 10 µg/mL for this compound? Cc1cc(-c2ccc3ocnc3c2)nc2c(C(=O)NC(C3CC3)C(F)(F)F)cnn12 (stereo not drawn)
0.0

Decide: solubility of Cc1cc(-c2ccc(F)c(C#N)c2)nc2c(C(=O)NC(C)C(F)(F)F)cnn12 (stereo not drawn) >= 10 µg/mL?
0.0

Is reported solubility greater than or equal to 10 µg/mL here: Cc1cc(-c2cccnc2)nc2c(C(=O)NC(C)C(F)(F)F)cnn12 (stereo not drawn)
1.0

In plain terms: is recorded solubility at least 10 µg/mL for COc1c(F)cccc1-c1cc(C)n2ncc(C(=O)NC(C3CC3)C(F)(F)F)c2n1 (stereo not drawn) ?
0.0

Reported solubility at or above 10 µg/mL? Cc1ccc(-c2cc(C)n3ncc(C(=O)N[C@@H](C4CC4)C(F)(F)F)c3n2)cn1
0.0

Hello, I need to know if Cc1cncc(-c2cc(C)n3ncc(C(=O)N[C@H](C4CC4)C(F)(F)F)c3n2)c1 has measured solubility not below 10 µg/mL. Thanks!
0.0

Does Cc1cc(-c2nnc(C(C)C)o2)nc2c(C(=O)N[C@H](C3CC3)C(F)(F)F)cnn12 have a reported solubility of at least 10 µg/mL?
0.0

Reported solubility reaches at least 10 µg/mL for Cc1cc(-c2cnccc2C(F)(F)F)nc2c(C(=O)NC(C)C(F)(F)F)cnn12 (stereo not drawn) ?
1.0

Hello, I need to know if Cc1cc(-c2ccc3ocnc3c2)nc2c(C(=O)N[C@H](C)C(F)(F)F)cnn12 has measured solubility not below 10 µg/mL. Thanks!
0.0

Could you tell me if the measured solubility of Cc1cc(-c2cncc(C(F)(F)F)c2)nc2c(C(=O)N[C@H](C)C(F)(F)F)cnn12 reaches 10 µg/mL or more?
0.0
